The origin of these recorded values is paper PMC11813147.

Tested on: RAW 264.7
Assay: Anti-inflammation assay: released NO in LPS-stimulated RAW 264.7 (Griess)
Assay type: cell-based, Murine
Conditions: peptide 10 µg/mL 1 h, then 1 µg/mL LPS 24 h; replicate 1
Measured Parameter: Released NO (µM)
Express it in µM; write the number only.

Would you please look over these solved cases?
RPLAKIIP [P8, synthesized peptide identified from jellyfish fraction PUR20C] | 37.58
LNIPKPKLNLL [P11, synthesized peptide identified from jellyfish fraction PUR20C] | 36.55
EIDKLPPESRP [P7, synthesized peptide identified from jellyfish fraction PUR20C] | 35.51
EQIYPMGEGDEL [P4, synthesized peptide identified from jellyfish fraction PUR20C] | 38.96
LGAEGRSP [P13, synthesized peptide identified from jellyfish fraction PUR20C] | 35.17
LMFMAVAFF [P12, synthesized peptide identified from jellyfish fraction PUR20C] | 36.89

Ask | So what Released NO did KFNEVVYFL [P15, synthesized peptide identified from jellyfish fraction PUR20C] get with RAW 264.7?
Reply | 32.75
